# Tested on: Staph. 9TV
# Assay Explanation: MIC by serial dilution on Iso-Sensitest agar
# Assay type: cell-based
# Test Parameters: Staph. 9TV; 37° C., about 20 hours; read-out: MIC
# Method: The minimum inhibitory concentrations (MICs) were determined by serial dilution tests on Iso-Sensitest agar (Oxoid). For each test substance, a number of agar plates were prepared which contained decreasing concentrations of the active compound. […] The inoculated agar plates were incubated at 37° C., and the microorganism growth was read off after about 20 hours. The MICs (μg/ml) indicates the lowest active compound concentration at which no growth could be detected using the naked eye.
Some compounds, each annotated with its measured MIC.
Note: unit µg/mL is implicit; provide only the numeric part.

Check out these entries, answers already filled in.
compound="CC(=O)NC[C@H]1CN(c2ccc3nc(C)sc3n2)C(=O)O1 [Example 14]" tgt="Staph. 9TV" measured_metric=MIC reported=2
compound="CC(=O)NCC1CN(c2cnc3c(c2)oc(=O)n3C)C(=O)O1 (stereo not shown) [Example 10]" tgt="Staph. 9TV" measured_metric=MIC reported=4
compound="Cn1c(=O)oc2cc(N3CC(CNC(=O)C4CC4)OC3=O)cnc21 (racemic) [Example 11]" tgt="Staph. 9TV" measured_metric=MIC reported=4

MIC recorded for this compound, COC(=O)NCC1CN(c2cnc3c(c2)oc(=O)n3C)C(=O)O1 (racemic) [Example 13] , is 4
